Task for the reader: assign each of the following compounds its reported log10(CC50).
# Tested on: human lung fibroblast cells (MRC-5)
# Assay name: Cytotoxicity of test compounds in vitro in MRC-5 cells (visual estimate of cell number)
# Assay type: cell-based
# Study conditions: Table 2; MRC-5, 5 days at 37°C
# Method: Cytotoxicity of test compounds in vitro: Subconfluent human lung fibroblast cells (MRC-5, American Type Culture Collection, Rockville, MD) in 24-well plates were treated with drugs diluted in E-MEM (Gibco BRL, Grand Island, NY) supplemented with 2% fetal bovine serum and antibiotics. After 5 days of incubation at 37°C, the cell monolayer was visually inspected under magnification and the concentration of drug which caused a 50% reduction in cell number was estimated.
Base-10 log of CC50, unit µM.

Ask: Need log10(CC50), item CCCCCCCCCCCCCCCCCCOCCOP(=O)(O)COC(CO)Cn1ccc(N)nc1=O (stereo not drawn) [1-O-octadecylethanediol-2-CDV]
Result: 2.32

Ask: # log10(CC50) lookup, item CCCCCCCCCCCCCCCCCCOCCCOP1(=O)COC(Cn2ccc(N)nc2=O)CO1 (stereo not drawn) [1-O-octadecylpropanediol-3-cCDV]
Result: 2.51

Ask: Endpoint output: log10(CC50) of CCCCCCCCCCCCCCCCCCOCCOP1(=O)COC(Cn2ccc(N)nc2=O)CO1 (stereo not drawn) [1-O-octadecylethanediol-2-cCDV] . Value?
Result: 2.51

Ask: What log10(CC50) value was documented for this compound, CCCCCCCCCCCCCCCCOCCCOP(=O)(O)CO[C@H](CO)Cn1ccc(N)nc1=O [HDP-CDV] ?
Result: 1.00

Ask: Please report the recorded log10(CC50) for CCCCCCCCCCCCCCCCOP1(=O)COC(Cn2ccc(N)nc2=O)CO1 (stereo not drawn) [Hexadecyl-cCDV] .
Result: 0.81

Ask: What measured log10(CC50) goes with CCCCCCCCCCCCCCCCOCCCOP1(=O)COC(Cn2ccc(N)nc2=O)CO1 (stereo not drawn) [HDP-cCDV, 1-O-hexadecylpropanediol-3-cyclic CDV] ?
Result: 2.51

Ask: Can you share its log10(CC50)? I mean this compound: CCCCCCCCCCCCCCCCCCOCCCOP(=O)(O)CO[C@H](CO)Cn1ccc(N)nc1=O [1-O-octadecylpropanediol-3-CDV]
Result: 1.51
